- testedOn: muscarinic receptors
- Format: binding, Hooded Lister rats
- experimentalParameters: 0.27 nM 3H-QNB; rat cerebral cortex; 37° C., 30 min; pH 7.7; non-specific: 1 μM Atropine sulphate
pIC50: −log10 of the molar value. Counter-ions that a name gives are not always drawn.
Threshold rule: pIC50 greater than or equal to 6 is T; below that, F.

Look over these answered cases.
1. CON=C(Cl)C12CCCN(CC1)C2 (racemic) [Example E5, oxalate salt] | F
2. CON=C(Br)C12CCN(CC1)C2 [Example E13, oxalate salt] | F
3. CON=C(C#N)C12CCCN(CC1)C2 (racemic) [Example E6, hydrochloride salt] | T
4. CON=C(C1CC1)C1CN2CCC1CC2 (racemic) [Example E15, hydrochloride salt] | F
5. CON=C(C#N)C12CCN(CC1)C2 | F

Does CON=C(OC)C1CN2CCC1CC2 (racemic) [Example E2] have a reported pIC50 of at least 6?
F

* * *

Would you mind telling me the reported pIC50 of each entry?
- testedOn: muscarinic receptors
- Assay type: binding, Hooded Lister rats
- experimentalParameters: 0.27 nM 3H-QNB; rat cerebral cortex; 37° C., 30 min; pH 7.7; non-specific: 1 μM Atropine sulphate
Counter-ions that a name gives are not always drawn.
Give bare numbers, as −log10 of the molar value.

For orientation, consider the following solved cases.
1. CON=C(Cl)[C@H]1CN2CC[C@H]1C2 (relative stereo) [Example E8, oxalate salt] | 5.48
2. CON=C(Cl)C12CCN(CC1)C2 [Example E11, oxalate salt] | 5.05
3. CON=C(CC#N)[C@H]1CN2CC[C@H]1C2 (relative stereo) | 5.96

Parameter requested: pIC50. Apply to each item below.
1. C#CCON=C(Cl)[C@H]1CN2CC[C@H]1C2 (relative stereo)
2. CON=C(Br)C12CCCN(CC1)C2 (racemic) [Example E7, oxalate salt]

1: 5.68; 2: 5.55

Noted for CON=C(F)C1CN2CCC1CC2 (racemic) [Example E10, oxalate salt] : its pIC50 reads 5.68
